- System: HCT-116 colon
- experiment.description: NCI tumour cell line growth inhibition, 48 h; in the data active means GI50 below about 0.43 µM; inactive means the rest
The reply should be one of these categories: Y (active), N (inactive)

Some solved cases for reference:
>  <compound>
COc1ccc(C(=O)c2cc3c(N)c(C(=O)Nc4cccc(Cl)c4)sc3nc2C)cc1

>  <group>
N

$$$$
>  <compound>
O=C(CCCCCCc1nc2ccc(Br)cc2[nH]1)NO

>  <group>
Y

$$$$
>  <compound>
Cc1ncc(C(=O)Nc2ccc(CN3CCN(C)CC3)c(C(F)(F)F)c2)cc1C#Cc1c(N)ncc2ccc(C#N)cc12

>  <group>
Y

$$$$
>  <compound>
CCN1CCN(C(=O)[C@]23CC[C@@H](C)[C@H](C)[C@@H]2C2=CC[C@@H]4[C@@]5(C)C/C(=C/c6cccnc6)C(=O)C(C)(C)[C@@H]5CC[C@@]4(C)[C@]2(C)CC3)CC1

>  <group>
N

$$$$

Q) Tell me the assay call for C=C1C(=O)O[C@@H]2[C@@H]3O[C@@](C)(CC/C=C(\C)CCC[C@@H]2C)[C@H](O)C[C@@H]13 please.
A) N

Q) Tell me the assay call for COC12C=C/C(=C(/C(=O)OCc3ccncn3)C(=O)CCCCCCCCC3(OC)C=C/C(=C(/C(=O)OCc4ccncn4)C(=O)CCCCCCCC1)O3)O2 please.
A) Y

Q) Tell me the assay call for CC(C)(O)Cn1c(=O)c(Oc2ccc(F)cc2F)cc2cnc(NC3CCOCC3)nc21 please.
A) N

Q) Tell me the assay call for CCN(CC)CCCCCCCCNc1c2ccc(Cl)cc2nc2ccc(OC)cc12 please.
A) N

---

- System: HL-60(TB) leukemia
- experiment.description: NCI tumour cell line growth inhibition, 48 h
quantity.name: log10 of TGI (log10 of the value in µM)
A value of 2 here means TGI of 100 in µM, since values are log10.

Consider the worked cases shown below.
>  <compound>
CC(C)(C)C#C[P+](c1ccccc1)(c1ccccc1)c1ccccc1

>  <observed>
-1.06

$$$$
>  <compound>
C=CCNC1=C2C[C@@H](C)C[C@@H](OC)C(OC(=O)CCCN(C)C)[C@H](C)/C=C(\C)[C@@H](OC(N)=O)[C@H](OC)/C=C\C=C(/C)C(=O)NC(=CC1=O)C2=O (stereo not given in full)

>  <observed>
1.31

$$$$
>  <compound>
CN(NC(=O)/C(=C/c1ccc(O)cc1)NC(=O)c1ccccc1)c1ccnc2cc(Cl)ccc12

>  <observed>
0.77

$$$$
>  <compound>
CCC12C=CCN3CC[C@]4(C(=C(C(=O)OC)[C@@H]1Nc1ncnc5c1ncn5C1OC(COC(C)=O)C(OC(C)=O)C1OC(C)=O)Nc1ccccc14)C32 (stereo not given in full)

>  <observed>
0.87

$$$$
>  <compound>
CCN(CC)CCCCCCCCNc1c2ccc(Cl)cc2nc2ccc(OC)cc12

>  <observed>
0.61

$$$$

Q) # get_value(readout='log10 of TGI', item= N/C(=N\N=C\c1ccc2c(c1)OCO2)NO )
A) 1.56

Q) # get_value(readout='log10 of TGI', item= COc1cc(/C=C2\C[C@H]3[C@@H]4CC=C5C[C@@H](N6CCCC6)CC[C@]5(C)[C@H]4CC[C@]3(C)[C@H]2O)cc(OC)c1OC )
A) 1.34

Q) # get_value(readout='log10 of TGI', item= COc1ccc(NC(=O)CC/C(CC(=O)c2ccco2)=N/Nc2ccc([N+](=O)[O-])cc2[N+](=O)[O-])cc1 )
A) 1.95
